System: BDF1 mice, B16 melanoma ip, median survival T/C
Test: NCI In Vivo Anticancer Drug Screen. Data for tumor model B16 Melanoma (intraperitoneal) in B6D2F1 (BDF1) mice
Conditions: endpoint: median survival time; dose: 8.0 mg/kg/injection; schedule: Q01DX009 (ip); vehicle: saline with Tween-80; higher = longer survival
Inconclusive results and toxic doses are left out.
Assign T/C to each entry below.

# compound, T/C
rows = [
    ("COc1ccc(CC2C(=O)NC(C)C(=O)N(C)C3Cc4ccc(cc4)Oc4cc(ccc4O)CC(C(=O)NC(C)C(=O)NC(C)C(=O)N2C)N(C)C3=O)cc1 (stereo not given)", "154 % of control"),
    ("C=C1C(=O)O[C@@H]2/C=C(/C)[C@@]3(O)C=C[C@](C)(C[C@@H](OC(=O)/C(=C\\C)COC(C)=O)[C@@H]12)O3", "105 % of control"),
    ("CC1NC(=O)C2Cc3ccc(O)c(c3)Oc3ccc(cc3)C(O)C(C(=O)N2C)N(C)C(=O)C(C)NC(=O)C(Cc2ccc(O)cc2)N(C)C(=O)C(C)NC1=O (stereo not given)", "96 % of control"),
]

Would you mind giving T/C for every compound in the list below?
1. COc1ccc(N2CSC(=S)N(c3ccc(OC)cc3)C2)cc1
2. COC(=O)c1[nH]c(=O)[nH]c(=O)c1F

[reply]
1: 97 % of control; 2: 107 % of control

----------
Assign T/C to each entry below.
Tested on: BDF1 mice, B16 melanoma ip, median survival T/C
Assay: NCI In Vivo Anticancer Drug Screen. Data for tumor model B16 Melanoma (intraperitoneal) in B6D2F1 (BDF1) mice
Details: endpoint: median survival time; dose: 100.0 mg/kg/injection; schedule: Q01DX009 (ip); vehicle: water; higher = longer survival
Toxic doses and inconclusive results are not listed.

# compound, T/C
measured = [
    ("NC(CNC(=O)C(Cl)Cl)C(=O)O (stereo not given)", "89 % of control"),
    ("COc1ccc(S(=O)(=O)NC(=S)S)cc1", "103 % of control"),
    ("COc1cc2cc3c4cc(OC)c(OC)cc4cc[n+]3c(C)c2cc1OC (tested in a mixture with another compound)", "91 % of control"),
    ("NC(=O)Oc1cccc(OC(N)=O)c1", "105 % of control"),
]

[ask] Find the recorded T/C belonging to "COc1cccc(C(=O)c2ccncc2C)c1OC" and report it.
[reply] 96 % of control

----------
Tested on: BDF1 mice, B16 melanoma ip, median survival T/C
Test: NCI In Vivo Anticancer Drug Screen. Data for tumor model B16 Melanoma (intraperitoneal) in B6D2F1 (BDF1) mice
Details: endpoint: median survival time; dose: 25.0 mg/kg/injection; schedule: Q04DX003 (ip); vehicle: saline with Tween-80; higher = longer survival
Inconclusive results and toxic doses are left out.
Assign T/C to each entry below.

Worked examples, 6 molecules total:
# molecule, T/C
data = [
    ("C1#CCCCCCC#CCCCC1", "97 % of control"),
    ("NC(=O)Cn1cnc2c(=S)nc[nH]c21", "100 % of control"),
    ("CCN=NNc1ccc(C)cc1", "103 % of control"),
    ("CCCCCCCCCCCCCCCCN(C)S(=O)(=O)c1ccc2sc(SC)[n+](C)c2c1 (tested in a mixture with another compound)", "100 % of control"),
    ("CC1=CCC=C(CNc2ncnc3nc[nH]c23)C1", "102 % of control"),
    ("COc1ccc(N=C=S)cc1N=C=S", "113 % of control"),
]

Would you mind giving T/C for every molecule in the list below?
1. O=C(CC1(Cl)C(F)(F)C(F)(F)C1(F)F)c1ccccc1
2. O=C(O)C1C2CCC1C2 (centres undefined)
3. Clc1ccc2nc(CI)c(CI)nc2c1

[reply]
1. 102 % of control
2. 103 % of control
3. 100 % of control

----------
System: BDF1 mice, B16 melanoma ip, median survival T/C
Test: NCI In Vivo Anticancer Drug Screen. Data for tumor model B16 Melanoma (intraperitoneal) in B6D2F1 (BDF1) mice
Conditions: endpoint: median survival time; dose: 300.0 mg/kg/injection; schedule: Q01DX009 (ip); vehicle: Klucel (hydroxypropylcellulose) (HPC); higher = longer survival
Description: The antitumor activity of compounds was measured in mice bearing transplantable tumors. Survival or tumor size were measured and the results are expressed as the measurement made in the treated group (T) divided by the measurement made in the vehicle treated control group (C). The tumor model used in this assay is B16 Melanoma (intraperitoneal) in B6D2F1 (BDF1) mice
Inconclusive results and toxic doses are left out.
value.type: T/C

# chemical.string, value.type, val
data = [
    ("CCc1ccccc1NC(=O)Nc1ccc(Cl)c(Cl)c1", "T/C", "89 % of control"),
    ("Cc1ccc(NS(=O)(=O)c2ccccc2)c(C)c1", "T/C", "92 % of control"),
]

Would you mind giving T/C for every compound in the list below?
1. Cc1ccc(NC(=O)c2ccccc2Cl)cc1Cl
2. CCCCCCCCC(=O)CCCCC

[reply]
1: 100 % of control; 2: 103 % of control

----------
Test system: BDF1 mice, B16 melanoma ip, median survival T/C
Test: NCI In Vivo Anticancer Drug Screen. Data for tumor model B16 Melanoma (intraperitoneal) in B6D2F1 (BDF1) mice
Conditions: endpoint: median survival time; dose: 1.5 mg/kg/injection; schedule: Q01DX009 (ip); vehicle: saline with Tween-80; higher = longer survival
Inconclusive results and toxic doses are left out.
Assign T/C to each entry below.

Worked examples, 3 molecules total:
# molecule, T/C
data = [
    ("CSC(=S)N/N=C/c1ccccn1", "89 % of control"),
    ("C[CH2][Pb]([CH2]C)([CH2]C)[O]C(=O)COc1ccccc1", "104 % of control"),
    ("O=C(O)c1ccccc1C(=O)c1ccc(CBr)cc1", "87 % of control"),
]

Would you mind giving T/C for every molecule in the list below?
1. O=C(CC1(Cl)C(F)(F)C(F)(F)C1(F)F)c1ccccc1
2. O=C1NC(=O)C2(CCc3ccc(N(CCCl)CCCl)cc32)N1 (configuration not stated)
3. Nc1ncn(C2OC(CO)C(O)C2O)c(=O)n1 (configuration not stated)

[reply]
1. 100 % of control
2. 120 % of control
3. 124 % of control

[ask] Find the recorded T/C belonging to "O=c1cc(CCl)[nH]nc1CCl" and report it.
[reply] 107 % of control

----------
System: BDF1 mice, B16 melanoma ip, median survival T/C
Test: NCI In Vivo Anticancer Drug Screen. Data for tumor model B16 Melanoma (intraperitoneal) in B6D2F1 (BDF1) mice
Conditions: endpoint: median survival time; dose: 12.5 mg/kg/injection; schedule: Q04DX003 (ip); vehicle: saline; higher = longer survival
Inconclusive results and toxic doses are left out.
value.type: T/C

Worked examples, 4 compounds total:
# compound, value.type, val
records = [
    ("COc1ccc2cc1Oc1ccc(cc1)C[C@H]1c3cc(c(OC)cc3CCN1C)Oc1c(OC)c(OC)cc3c1[C@H](C2)N(C)CC3", "T/C", "94 % of control"),
    ("OC(CC(O)(C(F)(F)F)C(F)(F)F)CC(O)(C(F)(F)F)C(F)(F)F", "T/C", "97 % of control"),
    ("COc1cc(C(=O)Nc2ccc(N(C)C)cc2)cc(OC)c1OC", "T/C", "119 % of control"),
    ("Cc1noc(C)c1CON", "T/C", "118 % of control"),
]

Now look at this entry.
[ask] Find the recorded T/C belonging to C=CCOCC(O)CN(C)C1CCCCC1 (stereo not given) and report it.
[reply] 121 % of control

----------
System: BDF1 mice, B16 melanoma ip, median survival T/C
Test: NCI In Vivo Anticancer Drug Screen. Data for tumor model B16 Melanoma (intraperitoneal) in B6D2F1 (BDF1) mice
Conditions: endpoint: median survival time; dose: 12.5 mg/kg/injection; schedule: Q01DX009 (ip); vehicle: Klucel (hydroxypropylcellulose) (HPC); higher = longer survival
Inconclusive results and toxic doses are left out.
value.type: T/C

# chemical.string, target.desc, T/C
rows = [
    ("CCCN(C(=O)CCl)c1ccccc1", "BDF1 mice, B16 melanoma ip, median survival T/C", "92 % of control"),
    ("Nc1nc(-c2ccccc2N=NN2CCN(N=Nc3ccccc3-c3nc(N)c4ccccc4n3)CC2)nc2ccccc12", "BDF1 mice, B16 melanoma ip, median survival T/C", "107 % of control"),
]

[ask] Find the recorded T/C belonging to "CC/C(=C/C(F)(F)C(F)(F)C(F)(F)F)[N+](=O)[O-]" and report it.
[reply] 101 % of control

----------
Tested on: BDF1 mice, B16 melanoma ip, median survival T/C
Experiment: NCI In Vivo Anticancer Drug Screen. Data for tumor model B16 Melanoma (intraperitoneal) in B6D2F1 (BDF1) mice
Conditions: endpoint: median survival time; dose: 200.0 mg/kg/injection; schedule: Q01DX009 (ip); vehicle: Klucel (hydroxypropylcellulose) (HPC); higher = longer survival
Experimental: The antitumor activity of compounds was measured in mice bearing transplantable tumors. Survival or tumor size were measured and the results are expressed as the measurement made in the treated group (T) divided by the measurement made in the vehicle treated control group (C). The tumor model used in this assay is B16 Melanoma (intraperitoneal) in B6D2F1 (BDF1) mice
Toxic doses and inconclusive results are not listed.
value.type: T/C

Worked examples, 5 molecules total:
# molecule, T/C
rows = [
    ("O=C(/C=C/c1ccc2c(c1)OCO2)c1ccc2c(c1)OCO2", "110 % of control"),
    ("Cc1cc2c(cc1C)NC(C)CC(=O)N2 (configuration not stated)", "106 % of control"),
    ("C/C(=C\\C(=O)Nc1ncn[nH]1)Nc1ncn[nH]1", "90 % of control"),
    ("CCCCCCCCCC(=O)CCC", "111 % of control"),
    ("O=[N+]([O-])c1ccc2c(c1)=N/C(=N\\c1nc(O)c(O)[nH]1)N=2", "100 % of control"),
]

Would you mind giving T/C for every molecule in the list below?
1. COc1cccc(N=Cc2ccc(C=Nc3cccc(OC)c3)cc2)c1
2. CCCCCCCCC(=O)N1CC(C)OC(C)C1 (configuration not stated)
3. CC1(C)C2CCC1C(CO)C2 (configuration not stated)
4. Cc1ccc(Nc2ccc([N+](=O)[O-])cc2[N+](=O)[O-])c(C)c1
5. CC(=O)OC1CCC2(C)C(CCC3C4CC=C(C(C)=O)C4(C)CCC32)C1 (configuration not stated)
6. O=C(Nc1ccccc1)Oc1ccc(Cl)cc1
7. Clc1ccc(/C(=[C](\[Hg]/[C](=C(\c2ccccc2)c2ccc(Cl)cc2)c2ccccc2)c2ccccc2)c2ccccc2)cc1

[reply]
96 % of control
89 % of control
90 % of control
98 % of control
98 % of control
94 % of control
100 % of control

Would you mind giving T/C for every molecule in the list below?
1. Cc1ccc(Cl)cc1NC(=O)c1ccccc1C(=O)O
2. Cc1nc(/N=N/c2nc(C)c(C)[nH]2)[nH]c1C
3. COc1cccc(NC(=O)Nc2cccc(Cl)c2)c1
4. C=CCNC(=S)NCC=C
5. CSc1ccc(N=Cc2ccc3c(c2)OCO3)cc1

[reply]
1. 93 % of control
2. 101 % of control
3. 96 % of control
4. 92 % of control
5. 88 % of control
